- target.desc: Androgen receptor (Homo sapiens)
- Sequence (P10275 whole entry): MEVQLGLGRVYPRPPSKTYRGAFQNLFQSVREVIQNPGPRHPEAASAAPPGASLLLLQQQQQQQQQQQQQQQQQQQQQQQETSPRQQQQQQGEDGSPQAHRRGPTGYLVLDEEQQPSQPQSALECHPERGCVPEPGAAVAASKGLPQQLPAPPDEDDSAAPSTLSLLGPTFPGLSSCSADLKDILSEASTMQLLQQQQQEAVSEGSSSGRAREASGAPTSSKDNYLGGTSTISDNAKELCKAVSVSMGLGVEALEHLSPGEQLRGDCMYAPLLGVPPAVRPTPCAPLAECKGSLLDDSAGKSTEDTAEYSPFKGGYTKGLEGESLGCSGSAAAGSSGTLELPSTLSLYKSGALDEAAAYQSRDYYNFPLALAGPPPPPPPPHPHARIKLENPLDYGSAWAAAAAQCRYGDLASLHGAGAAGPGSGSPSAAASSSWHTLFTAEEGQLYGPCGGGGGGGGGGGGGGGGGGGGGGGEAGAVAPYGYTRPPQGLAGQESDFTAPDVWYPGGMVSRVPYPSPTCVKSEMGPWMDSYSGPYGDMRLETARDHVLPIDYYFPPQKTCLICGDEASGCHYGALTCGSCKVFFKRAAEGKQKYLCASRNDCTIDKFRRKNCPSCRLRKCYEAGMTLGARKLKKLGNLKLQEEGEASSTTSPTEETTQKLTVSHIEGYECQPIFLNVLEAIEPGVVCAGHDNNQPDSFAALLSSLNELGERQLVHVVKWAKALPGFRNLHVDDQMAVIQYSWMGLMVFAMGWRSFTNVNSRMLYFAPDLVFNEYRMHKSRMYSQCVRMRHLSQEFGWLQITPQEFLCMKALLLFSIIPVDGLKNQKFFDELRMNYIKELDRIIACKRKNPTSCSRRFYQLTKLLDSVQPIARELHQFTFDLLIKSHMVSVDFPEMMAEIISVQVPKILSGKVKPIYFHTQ
- assay.notes: Antagonist activity at Androgen receptor (unknown origin) assessed as inhibition of activation function 1 (AF-1) of AR N-terminal transactivation domain (NTD)
metric.name: IC50 (µM)
State just the number; it will be interpreted in µM.

Enquiry: Need IC50 of CC(=O)OC[C@H](COc1ccc(C(C)(C)c2ccc(OC[C@@H](CCl)OC(C)=O)cc2)cc1)OC(C)=O [RALANITEN ACETATE] , thanks.
Return: 9.6

* * *

- target.desc: Androgen receptor (Homo sapiens)
- Sequence (P10275 whole entry): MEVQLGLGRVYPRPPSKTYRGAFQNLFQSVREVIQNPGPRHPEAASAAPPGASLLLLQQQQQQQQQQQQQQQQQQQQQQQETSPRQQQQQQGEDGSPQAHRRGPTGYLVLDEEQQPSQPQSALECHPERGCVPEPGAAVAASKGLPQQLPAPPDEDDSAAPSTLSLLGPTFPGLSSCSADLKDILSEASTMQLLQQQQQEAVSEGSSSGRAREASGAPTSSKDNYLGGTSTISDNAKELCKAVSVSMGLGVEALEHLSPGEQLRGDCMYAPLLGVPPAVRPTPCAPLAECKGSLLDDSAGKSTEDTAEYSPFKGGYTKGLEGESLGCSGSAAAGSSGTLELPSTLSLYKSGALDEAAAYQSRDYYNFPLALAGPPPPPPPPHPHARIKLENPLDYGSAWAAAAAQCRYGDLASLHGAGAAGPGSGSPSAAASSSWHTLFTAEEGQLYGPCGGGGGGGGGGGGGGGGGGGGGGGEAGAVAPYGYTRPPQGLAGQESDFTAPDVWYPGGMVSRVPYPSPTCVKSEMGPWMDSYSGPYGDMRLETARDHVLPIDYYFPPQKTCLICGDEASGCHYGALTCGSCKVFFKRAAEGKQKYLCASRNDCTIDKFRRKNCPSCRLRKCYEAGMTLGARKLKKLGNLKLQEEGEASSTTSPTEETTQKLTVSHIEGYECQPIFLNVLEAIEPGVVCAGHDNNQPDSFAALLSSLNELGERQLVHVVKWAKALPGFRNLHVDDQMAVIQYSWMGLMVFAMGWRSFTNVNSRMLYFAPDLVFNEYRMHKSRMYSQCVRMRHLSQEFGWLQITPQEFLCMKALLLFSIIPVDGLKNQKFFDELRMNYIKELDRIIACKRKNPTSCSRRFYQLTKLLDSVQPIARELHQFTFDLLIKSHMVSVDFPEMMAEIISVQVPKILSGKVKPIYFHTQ
- assay.notes: Binding affinity to human Androgen receptor measured by fluorescence polarization assay
metric.name: Ki (nM)
Answer in nM, number only, no unit symbol.

Enquiry: What Ki value was documented for this compound, Cc1c(N[C@@H](c2ccc(-c3ccc(C#N)cc3)o2)[C@H](C)O)ccc(C#N)c1Cl ?
Return: 7
